- Tested on: MDA-MB-435
- procedure_details: NCI tumour cell line growth inhibition, 48 h
measurement_type: TGI

Please review the following examples before continuing.
Give the measured TGI of Cc1ccccc1S(=O)(=O)Nn1cnc2ccc(S(=O)(=O)Nc3ccc(Cl)cc3)cc2c1=O .
> 100 µM

Any idea what TGI was measured for CC(=O)O[C@H]1[C@H](OC(=O)CC(C)(O)CC(=O)O)C[C@]2(C)C3=C(CCC2C1(C)C)[C@]1(C)CC[C@H]([C@H]2CC[C@H](C(C)(C)O)OC2O)[C@@]1(C)[C@@H](O)C3 (some centres undefined) ?
35.1 µM

Find the recorded TGI belonging to COc1cccc(/C=N/C(/N=C/c2cccc(OC)c2O)c2cccc(OC)c2O)c1O and report it.
> 100 µM

What value of measured TGI is listed for COc1cc2c(cc1OC)C13CCN4CC5CCOC6CC(=O)N2C1C6C5CC43 (centres undefined) ?
> 100 µM

For O=C1CCc2c(sc3[nH]c(=S)n(Cc4ccc(Cl)cc4)c(=O)c23)C1 , what is its reported TGI?
8.33 µM

Need TGI of N#Cc1cnc(N)nc1NCC1(CO)CC(CCc2ccccc2)C1 (centres undefined) , thanks.
> 100 µM

Consider the compound shown here: Cc1nc2c(=O)n(C)ncc2[nH]1 What is its recorded TGI?
> 100 µM

Request the reported TGI associated with C#CCOc1cccc(Nc2ncnc3cc(NC(=O)CCl)ccc23)c1
16.4 µM

API: the following record is the query input.
Return reported TGI; argument: CC(C)CC(NC(=O)OC(C)(C)C)C(=O)Nc1ccc(Nc2nc(F)nc(-c3c4ccccc4cn3C)n2)cc1 (centres undefined)
> 100 µM
